# Measurement Notes: Antiproliferative activity against human RPMI8226 cells assessed as growth inhibition after 48 hrs by sulforhodamine B assay
# Type: functional
# Test Parameters: RPMI-8226, 48 h
The compounds listed here are annotated with their TGI.

Solved cases below.
• CNC(=O)c1cc(Oc2ccc3nc(NC(=O)c4cc(C(F)(F)F)cc(C(F)(F)F)c4)sc3c2)ccn1 = > 100 µM
• CNC(=O)c1cc(Oc2ccc(NC(=O)Nc3ccc(Cl)c(C(F)(F)F)c3)cc2)ccn1 = 6.31 µM
• CNC(=O)c1cc(Oc2ccc3nc(NC(=O)Nc4ccc(Cl)c(Cl)c4)sc3c2)ccn1 = > 100 µM

IN: Fill blank: measured TGI of the compound CNC(=O)c1cc(Oc2ccc3nc(NC(=O)Nc4cc(C(F)(F)F)cc(C(F)(F)F)c4)sc3c2)ccn1 is ____.
OUT: 3.81 µM
